molecular target: hERG (KCNH2) (Homo sapiens, UniProt Q12809); experiment: Inhibition of human ERG at 40 uM relative to control
Sequence (Q12809 whole entry): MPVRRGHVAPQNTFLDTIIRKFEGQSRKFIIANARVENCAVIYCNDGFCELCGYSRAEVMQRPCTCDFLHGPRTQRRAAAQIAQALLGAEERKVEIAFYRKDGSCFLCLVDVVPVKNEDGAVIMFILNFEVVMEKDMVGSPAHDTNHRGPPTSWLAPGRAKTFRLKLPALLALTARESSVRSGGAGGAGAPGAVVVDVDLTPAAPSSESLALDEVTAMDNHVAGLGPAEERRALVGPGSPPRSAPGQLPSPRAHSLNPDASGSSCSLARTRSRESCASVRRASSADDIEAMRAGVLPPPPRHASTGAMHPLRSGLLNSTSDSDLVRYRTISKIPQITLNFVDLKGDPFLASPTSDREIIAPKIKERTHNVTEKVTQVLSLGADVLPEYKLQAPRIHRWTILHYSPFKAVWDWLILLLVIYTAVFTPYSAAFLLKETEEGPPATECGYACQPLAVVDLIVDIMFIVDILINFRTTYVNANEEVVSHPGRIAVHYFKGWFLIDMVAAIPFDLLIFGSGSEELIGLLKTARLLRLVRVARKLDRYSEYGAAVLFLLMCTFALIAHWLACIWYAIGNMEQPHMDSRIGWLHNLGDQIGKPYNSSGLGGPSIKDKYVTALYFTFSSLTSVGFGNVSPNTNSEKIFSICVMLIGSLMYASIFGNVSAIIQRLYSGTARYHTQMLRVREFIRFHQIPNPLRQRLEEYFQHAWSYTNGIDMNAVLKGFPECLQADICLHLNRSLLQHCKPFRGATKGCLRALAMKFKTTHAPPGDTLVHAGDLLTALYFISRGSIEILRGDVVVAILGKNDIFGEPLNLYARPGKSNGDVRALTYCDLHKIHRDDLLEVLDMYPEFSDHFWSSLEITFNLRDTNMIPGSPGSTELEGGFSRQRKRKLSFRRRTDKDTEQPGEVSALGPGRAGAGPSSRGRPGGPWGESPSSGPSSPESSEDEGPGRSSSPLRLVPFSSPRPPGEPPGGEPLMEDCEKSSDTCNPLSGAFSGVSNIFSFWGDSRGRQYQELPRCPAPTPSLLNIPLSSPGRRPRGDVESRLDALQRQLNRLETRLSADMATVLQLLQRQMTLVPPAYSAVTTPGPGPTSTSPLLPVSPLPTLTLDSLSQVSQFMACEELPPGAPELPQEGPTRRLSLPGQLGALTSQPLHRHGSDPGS
TEST_READOUT: inhibition at 40 µM (%)
Answers are plain numbers, in %.

Check out these entries, answers already filled in.
>  <SMILES_TEXT>
CC[C@H](Nc1nc(N)nc(N)c1C#N)c1nc2cccc(C#CCCCC(=O)N3CCOCC3)c2c(=O)n1-c1ccccc1

>  <TEST_READOUT>
inhibition at 40 µM

>  <REPORTED_RESULT>
34.1

$$$$
>  <SMILES_TEXT>
CC[C@H](Nc1nc(N)nc(N)c1C#N)c1nc2cccc(C#CCCCC(=O)N3CCCC3)c2c(=O)n1-c1ccccc1

>  <TEST_READOUT>
inhibition at 40 µM

>  <REPORTED_RESULT>
39.3

$$$$

Please turn your attention to the following entry.
IN: Give its inhibition at 40 µM value. Item: "N#Cc1c(N)ncnc1N1CCC[C@H]1c1nc2cccc(C#CCCCC(=O)N3CCOCC3)c2c(=O)n1-c1ccccc1"
OUT: 61.9

---

test system: U-937; assay: Inhibition of phorbol 12-myristate 13-acetate-induced peroxide production in human U937 cells; format: functional, cell-based
TEST_READOUT: IC50
Show the value, then the unit it is measured in.

IN: Give its IC50 value. Item: "COCCOCCNC(=O)CCCC#Cc1cccc2nc(Cn3nc(-c4cccc(O)c4)c4c(N)ncnc43)n(Cc3ccccc3Cl)c(=O)c12"
OUT: 1.1 nM

---

Exercise: state measured IC50 for each of the compounds provided.
biological target: Phosphatidylinositol 4,5-bisphosphate 3-kinase catalytic subunit gamma isoform (Homo sapiens); assay: Inhibition of PI3Kgamma (unknown origin) using PIP2 as substrate measured after 30 mins by HTRF assay
Sequence (P48736 whole entry, canonical isoform): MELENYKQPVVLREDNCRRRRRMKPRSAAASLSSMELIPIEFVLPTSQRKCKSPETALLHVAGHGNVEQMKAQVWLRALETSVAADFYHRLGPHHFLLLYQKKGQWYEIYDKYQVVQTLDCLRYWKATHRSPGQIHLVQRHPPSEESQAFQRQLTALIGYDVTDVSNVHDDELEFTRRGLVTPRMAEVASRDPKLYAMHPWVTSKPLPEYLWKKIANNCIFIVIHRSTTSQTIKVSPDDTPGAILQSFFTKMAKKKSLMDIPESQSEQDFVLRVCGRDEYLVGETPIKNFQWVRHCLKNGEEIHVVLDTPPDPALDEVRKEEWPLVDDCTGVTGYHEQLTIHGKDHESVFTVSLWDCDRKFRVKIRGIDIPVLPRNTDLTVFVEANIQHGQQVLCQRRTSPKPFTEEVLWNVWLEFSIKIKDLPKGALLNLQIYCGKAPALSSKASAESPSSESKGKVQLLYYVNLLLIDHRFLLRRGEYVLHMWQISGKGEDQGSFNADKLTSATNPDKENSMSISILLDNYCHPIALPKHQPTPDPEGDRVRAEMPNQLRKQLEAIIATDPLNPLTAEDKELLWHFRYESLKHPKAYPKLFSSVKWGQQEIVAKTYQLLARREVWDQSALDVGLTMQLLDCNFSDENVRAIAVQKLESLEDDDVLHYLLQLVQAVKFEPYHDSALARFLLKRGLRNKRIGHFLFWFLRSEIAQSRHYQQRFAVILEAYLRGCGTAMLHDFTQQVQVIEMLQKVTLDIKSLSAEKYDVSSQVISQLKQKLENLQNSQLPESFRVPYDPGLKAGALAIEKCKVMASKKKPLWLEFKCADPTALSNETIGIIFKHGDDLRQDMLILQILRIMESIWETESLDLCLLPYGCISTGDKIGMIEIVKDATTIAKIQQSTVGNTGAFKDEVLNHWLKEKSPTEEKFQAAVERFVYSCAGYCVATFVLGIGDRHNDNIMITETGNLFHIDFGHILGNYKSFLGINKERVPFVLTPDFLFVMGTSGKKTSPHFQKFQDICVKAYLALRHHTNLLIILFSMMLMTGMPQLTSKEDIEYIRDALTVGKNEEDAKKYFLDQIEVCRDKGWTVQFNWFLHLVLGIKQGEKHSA
Answers are plain numbers, in nM.

>  <SMILES_TEXT>
CC[C@H](Nc1nc(N)nc(N)c1C#N)c1nc2cccc(C#CCCCC(=O)N3CCOCC3)c2c(=O)n1-c1ccccc1

>  <TEST_READOUT>
IC50

>  <REPORTED_RESULT>
91.9

$$$$
>  <SMILES_TEXT>
Cc1nc(N)nc(N2CCC[C@H]2c2nc3cccc(C#CCCCC(=O)N4CCCC4)c3c(=O)n2-c2ccccc2)c1C#N

>  <TEST_READOUT>
IC50

>  <REPORTED_RESULT>
132

$$$$
>  <SMILES_TEXT>
CC[C@H](Nc1nc(N)nc(N)c1C#N)c1nc2cccc(C#CCCCC(=O)N3CCCC3)c2c(=O)n1-c1ccccc1

>  <TEST_READOUT>
IC50

>  <REPORTED_RESULT>
125

$$$$

Please turn your attention to the following entry.
IN: Give its IC50 value. Item: "N#Cc1c(N)ncnc1N1CCC[C@H]1c1nc2cccc(C#CCCCC(=O)N3CCOCC3)c2c(=O)n1-c1ccccc1"
OUT: 291

---

Exercise: state measured IC50 for each of the molecules provided.
system: SU-DHL-6; test: Antiproliferative activity against human SUDHL6 cells measured after 72 hrs by alamar blue assay; assay type: functional, cell-based; conditions: SU-DHL-6, 72 h
One number for each entry, in nM.

Check out these entries, answers already filled in.
>  <MOLECULE>
CC(C)(C)N1CCN(CC#Cc2cccc3nc([C@@H]4CCCN4c4ncnc(N)c4C#N)n(-c4ccccc4)c(=O)c23)CC1

>  <UNIT_STRING>
nM

>  <IC50>
282

$$$$
>  <MOLECULE>
N#Cc1c(N)ncnc1N1CCC[C@H]1c1nc2cccc(C#CCN3CCOCC3)c2c(=O)n1-c1ccccc1

>  <UNIT_STRING>
nM

>  <IC50>
1160

$$$$
>  <MOLECULE>
CC[C@H](Nc1nc(N)nc(N)c1C#N)c1nc2cccc(C#CCCCO)c2c(=O)n1-c1ccccc1

>  <UNIT_STRING>
nM

>  <IC50>
26.8

$$$$
>  <MOLECULE>
Cc1nc(N)nc(N2CCC[C@H]2c2nc3cccc(C#CCCCC(=O)N4CCCC4)c3c(=O)n2-c2ccccc2)c1C#N

>  <UNIT_STRING>
nM

>  <IC50>
58.9

$$$$
>  <MOLECULE>
N#Cc1c(N)ncnc1N1CCC[C@H]1c1nc2cccc(C#CCN3CCC(C4CC(F)(F)C4)CC3)c2c(=O)n1-c1ccccc1

>  <UNIT_STRING>
nM

>  <IC50>
724

$$$$
>  <MOLECULE>
N#Cc1c(N)ncnc1N1CCC[C@H]1c1nc2cccc(C#CCN3CCC(C4CC(F)C4)CC3)c2c(=O)n1-c1ccccc1 (stereo partly drawn)

>  <UNIT_STRING>
nM

>  <IC50>
526

$$$$

Please turn your attention to the following entry.
IN: What value of IC50 on SU-DHL-6 does "N#Cc1c(N)ncnc1N1CC[C@H]1c1nc2cccc(C#CCCCC(=O)N3CCCC3)c2c(=O)n1-c1ccccc1" have?
OUT: 7840

---

Exercise: state measured IC50 for each of the compounds provided.
target: Phosphatidylinositol 4,5-bisphosphate 3-kinase catalytic subunit beta isoform (Homo sapiens); test: Inhibition of PI3Kbeta (unknown origin) using PIP2 as substrate measured after 30 mins by HTRF assay
Sequence (P42338 whole entry, canonical isoform): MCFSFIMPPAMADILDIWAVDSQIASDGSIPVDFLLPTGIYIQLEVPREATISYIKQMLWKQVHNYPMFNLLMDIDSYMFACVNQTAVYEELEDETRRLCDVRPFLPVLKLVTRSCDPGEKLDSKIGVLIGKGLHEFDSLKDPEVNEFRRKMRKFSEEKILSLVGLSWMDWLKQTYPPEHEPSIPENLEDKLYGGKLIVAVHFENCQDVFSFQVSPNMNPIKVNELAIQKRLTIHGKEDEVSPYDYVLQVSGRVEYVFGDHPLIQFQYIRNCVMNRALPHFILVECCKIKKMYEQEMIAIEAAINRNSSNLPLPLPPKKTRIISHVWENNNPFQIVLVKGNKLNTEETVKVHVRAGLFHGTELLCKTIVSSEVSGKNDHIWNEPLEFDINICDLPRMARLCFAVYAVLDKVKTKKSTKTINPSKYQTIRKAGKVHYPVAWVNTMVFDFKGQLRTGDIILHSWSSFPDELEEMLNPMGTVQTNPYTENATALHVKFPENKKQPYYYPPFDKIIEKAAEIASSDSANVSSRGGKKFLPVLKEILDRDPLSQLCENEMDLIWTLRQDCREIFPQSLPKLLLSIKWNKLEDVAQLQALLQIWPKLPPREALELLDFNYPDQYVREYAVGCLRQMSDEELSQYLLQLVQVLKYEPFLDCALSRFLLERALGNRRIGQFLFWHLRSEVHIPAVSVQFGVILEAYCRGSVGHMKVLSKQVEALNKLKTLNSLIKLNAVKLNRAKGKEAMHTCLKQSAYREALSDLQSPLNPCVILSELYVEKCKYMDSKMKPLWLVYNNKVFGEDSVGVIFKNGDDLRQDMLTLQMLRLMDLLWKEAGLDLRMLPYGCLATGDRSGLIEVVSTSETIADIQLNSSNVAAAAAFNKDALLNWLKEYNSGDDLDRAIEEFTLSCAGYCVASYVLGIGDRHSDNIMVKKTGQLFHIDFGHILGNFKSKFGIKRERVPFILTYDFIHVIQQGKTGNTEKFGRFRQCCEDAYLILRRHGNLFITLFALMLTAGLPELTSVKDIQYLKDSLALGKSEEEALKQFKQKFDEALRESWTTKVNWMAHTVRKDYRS
Numbers only, in µM.

Give one value of IC50 per listed compound.
1. Cc1nc(N)nc(N2CCC[C@H]2c2nc3cccc(C#CCCCC(=O)N4CCCC4)c3c(=O)n2-c2ccccc2)c1C#N
2. CC[C@H](Nc1nc(N)nc(N)c1C#N)c1nc2cccc(C#CCCCC(=O)N3CCOCC3)c2c(=O)n1-c1ccccc1
3. N#Cc1c(N)ncnc1N1CCC[C@H]1c1nc2cccc(C#CCCCC(=O)N3CCOCC3)c2c(=O)n1-c1ccccc1

OUT:
2.02
0.509
1.65

---

target: Phosphatidylinositol 4,5-bisphosphate 3-kinase catalytic subunit delta isoform (Homo sapiens, UniProt O00329); experiment: Inhibition of PI3Kdelta (unknown origin) using PIP2 as substrate measured after 30 mins by HTRF assay
Sequence (O00329 whole entry, canonical isoform): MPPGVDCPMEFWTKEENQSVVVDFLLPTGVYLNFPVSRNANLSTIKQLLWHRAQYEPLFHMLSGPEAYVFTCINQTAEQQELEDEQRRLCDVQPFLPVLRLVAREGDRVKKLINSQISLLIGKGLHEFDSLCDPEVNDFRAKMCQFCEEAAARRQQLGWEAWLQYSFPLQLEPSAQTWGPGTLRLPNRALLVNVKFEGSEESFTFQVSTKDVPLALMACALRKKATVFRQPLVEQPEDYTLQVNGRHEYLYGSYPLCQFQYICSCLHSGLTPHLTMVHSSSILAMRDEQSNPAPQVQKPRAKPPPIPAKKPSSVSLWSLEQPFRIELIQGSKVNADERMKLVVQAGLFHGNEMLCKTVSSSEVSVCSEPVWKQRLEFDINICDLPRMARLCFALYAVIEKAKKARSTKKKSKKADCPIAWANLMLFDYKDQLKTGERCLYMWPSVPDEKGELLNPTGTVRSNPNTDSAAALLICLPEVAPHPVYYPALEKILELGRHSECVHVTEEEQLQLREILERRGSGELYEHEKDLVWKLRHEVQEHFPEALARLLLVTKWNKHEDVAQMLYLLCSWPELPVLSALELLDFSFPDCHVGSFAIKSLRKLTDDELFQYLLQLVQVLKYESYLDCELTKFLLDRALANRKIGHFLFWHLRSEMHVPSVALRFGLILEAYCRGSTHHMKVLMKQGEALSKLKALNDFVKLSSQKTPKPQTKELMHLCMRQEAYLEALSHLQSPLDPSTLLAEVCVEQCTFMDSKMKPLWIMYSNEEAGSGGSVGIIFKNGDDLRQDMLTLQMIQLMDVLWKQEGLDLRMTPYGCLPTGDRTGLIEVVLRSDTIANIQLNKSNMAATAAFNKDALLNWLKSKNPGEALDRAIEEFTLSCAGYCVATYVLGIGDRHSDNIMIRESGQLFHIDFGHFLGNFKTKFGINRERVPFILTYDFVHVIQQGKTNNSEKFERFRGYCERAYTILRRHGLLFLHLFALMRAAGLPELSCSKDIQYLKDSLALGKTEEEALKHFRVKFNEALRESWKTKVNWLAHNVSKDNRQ
# strict inequality: IC50 < 100 nM yields MET, everything else yields NOT MET

The examples below pair each entry with its known result.
>  <SMILES_TEXT>
N#Cc1c(N)ncnc1N1CCC[C@H]1c1nc2cccc(C#CCN3CCN(CC4CC4)CC3)c2c(=O)n1-c1ccccc1

>  <LABEL_VALUE>
NOT MET

$$$$
>  <SMILES_TEXT>
N#Cc1c(N)ncnc1N1CCC[C@H]1c1nc2cccc(C#CCN3C[C@@H]4C[C@H]3CN4)c2c(=O)n1-c1ccccc1

>  <LABEL_VALUE>
NOT MET

$$$$
>  <SMILES_TEXT>
N#Cc1c(N)ncnc1N1CCC[C@H]1c1nc2cccc(C#CCN3CCOCC3)c2c(=O)n1-c1ccccc1

>  <LABEL_VALUE>
NOT MET

$$$$
>  <SMILES_TEXT>
CC(C)(CO)N1CCN(CC#Cc2cccc3nc([C@@H]4CCCN4c4ncnc(N)c4C#N)n(-c4ccccc4)c(=O)c23)CC1

>  <LABEL_VALUE>
MET

$$$$
>  <SMILES_TEXT>
N#Cc1c(N)ncnc1N1CCC[C@H]1c1nc2cccc(C#CC(=O)N3CCOCC3)c2c(=O)n1-c1ccccc1

>  <LABEL_VALUE>
MET

$$$$

IN: # check: IC50 < 100 nM for "CC[C@H](Nc1ncnc(N)c1C#N)c1nc2cccc(C#CCCCC(=O)N3CCOCC3)c2c(=O)n1-c1ccccc1"
OUT: MET
